TEST_SUMMARY: Pharmacokinetic assay in adult beagles (IV 5 mg/kg, PO 10 mg/kg)
Format: in vivo
CONDITION_PARAMETERS: beagle, dog, plasma, PO 10 mg/kg, male
OBSERVED_PROPERTY: Tmax (min)
Kindly provide the numeric value in min only, without the unit symbol.

// N#CC[C@H](C1CCCC1)n1cc(-c2ncnc3[nH]ccc23)c(N)n1 : Tmax value = 15

* * *

TEST_SUMMARY: in vivo
CONDITION_PARAMETERS: male, Sprague-Dawley, rat, plasma, po, 5 mg/kg
OBSERVED_PROPERTY: Cmax (ng/mL)
# unit: ng/mL | format: bare number

The compound CCNc1nn(C(CC#N)C2CCCC2)cc1-c1ncnc2[nH]ccc12 (stereo not shown) [Example 7] showed Cmax equal to 13.5
